Data origin: ChEMBL document CHEMBL4033791

assay protocol: Solubility of the compound in buffer
log10 of solubility overview
observable: log10 of solubility (log10 of the value in µM)

molecule: c1cc(-c2cnc3[nH]ccc3c2)c2cc[nH]c2n1
value observed: 2.70

molecule: c1ccc(C2CCCN2c2ccnc3[nH]ncc23)cc1 (stereo not drawn)
value observed: 2.40

molecule: c1cnc2c(c1)CCN2c1ccnc2[nH]ccc12
value observed: 2.40

molecule: c1ccc2c(c1)OCCN2c1ccnc2[nH]ccc12
value observed: 2.40

molecule: CCNC(=O)c1cc2c(-c3cccc(Cl)c3)ccnc2[nH]1
value observed: 2.40

molecule: CCNC(=O)c1cc2c(N3CCCC3c3cccnc3)ccnc2[nH]1 (stereo not drawn)
value observed: 2.70

molecule: O=C(NC1COC1)c1cc2c(N3CCCC3c3ccccn3)ccnc2[nH]1 (stereo not drawn)
value observed: 2.40

molecule: c1ccc(C2COCCN2c2ccnc3[nH]ncc23)cc1 (stereo not drawn)
value observed: 3.00

molecule: O=C(NC1CC1)c1cc2c(-c3cccc(Cl)c3)ccnc2[nH]1
value observed: 2.00

molecule: c1cncc(C2CCCN2c2ccnc3[nH]ncc23)c1 (stereo not drawn)
value observed: 3.00

molecule: NC(=O)c1cc2c(-c3cccc(Cl)c3)ccnc2[nH]1
value observed: 2.00

molecule: c1ccc(C2CN(c3ccnc4[nH]ccc34)CCO2)cc1 (stereo not drawn)
value observed: 2.40

molecule: CCNC(=O)c1cc2c(N3CCOC[C@@H]3C)ccnc2[nH]1
value observed: 2.70

molecule: Clc1cccc(-c2ccnc3[nH]ccc23)c1
value observed: 2.40

molecule: COC(C)(C)C1CCCN1c1ccnc2[nH]ncc12 (stereo not drawn)
value observed: 3.00

molecule: CNC(=O)c1cc2c(-c3cccnc3)ccnc2[nH]1
value observed: 3.00

molecule: O=C(NC1CC1)c1cc2c(N3CCCC3c3ccccn3)ccnc2[nH]1 (stereo not drawn)
value observed: 2.40

molecule: CCOC(=O)c1ccnc2[nH]ccc12
value observed: 3.30

molecule: N#Cc1cc2c(-c3cccc(Cl)c3)ccnc2[nH]1
value observed: 2.40

molecule: c1cncc(-c2ccnc3[nH]ccc23)c1
value observed: 3.30

molecule: c1ccc(C2CCCN2c2ccnc3[nH]ccc23)cc1 (stereo not drawn)
value observed: 2.40

molecule: CCNC(=O)c1cc2c(N3CCOCC3c3ccccc3)ccnc2[nH]1 (stereo not drawn)
value observed: 2.40

molecule: c1ccc2c(c1)CCN(c1ccnc3[nH]ccc13)C2
value observed: 1.00

molecule: CCNC(=O)c1cc2c(N3CCCC3C(C)(C)OC)ccnc2[nH]1 (stereo not drawn)
value observed: 3.00

molecule: Clc1cccc(-c2ccnc3[nH]ncc23)c1
value observed: 2.00

molecule: CCNC(=O)c1cc2c(N3CCOCC3C3CC3)ccnc2[nH]1 (stereo not drawn)
value observed: 2.70

molecule: CNC(=O)c1cc2c(-c3cccc(Cl)c3)ccnc2[nH]1
value observed: 2.40

molecule: Cc1cc2c(-c3cccc(Cl)c3)ccnc2[nH]1
value observed: 1.70

molecule: CCNC(=O)c1cc2c(N3CCCC3c3ccccc3)ccnc2[nH]1 (stereo not drawn)
value observed: 2.00

molecule: Clc1cccc(-c2ccnc3[nH]c(-c4cnco4)cc23)c1
value observed: 1.70

molecule: CCNC(=O)c1cc2c(N3CCCC3c3ccccn3)ccnc2[nH]1 (stereo not drawn)
value observed: 2.70

molecule: OCc1cc2c(-c3cccc(Cl)c3)ccnc2[nH]1
value observed: 1.00

molecule: CN(C)C(=O)c1cc2c(-c3cccc(Cl)c3)ccnc2[nH]1
value observed: 2.40
